biological target: recombinant human NaV1.8 stably transfected HEK cells (Homo sapiens, UniProt Q9Y5Y9); construct: expressed in transfected cells; host or cells: HEK cells, stably transfected; assay: Compound profiling on NaV1.8, human NaV1.8 cell line, SyncroPatch384PE automated patch clamp assay (Example 115, third set of compounds, Table 27); assay type: cell-based; settings: inactivated state block (P2 measurement), human NaV1.8 HEK cells, Table 27 (third set of compounds), read-out: P2 IC50
Sequence (Q9Y5Y9 whole entry): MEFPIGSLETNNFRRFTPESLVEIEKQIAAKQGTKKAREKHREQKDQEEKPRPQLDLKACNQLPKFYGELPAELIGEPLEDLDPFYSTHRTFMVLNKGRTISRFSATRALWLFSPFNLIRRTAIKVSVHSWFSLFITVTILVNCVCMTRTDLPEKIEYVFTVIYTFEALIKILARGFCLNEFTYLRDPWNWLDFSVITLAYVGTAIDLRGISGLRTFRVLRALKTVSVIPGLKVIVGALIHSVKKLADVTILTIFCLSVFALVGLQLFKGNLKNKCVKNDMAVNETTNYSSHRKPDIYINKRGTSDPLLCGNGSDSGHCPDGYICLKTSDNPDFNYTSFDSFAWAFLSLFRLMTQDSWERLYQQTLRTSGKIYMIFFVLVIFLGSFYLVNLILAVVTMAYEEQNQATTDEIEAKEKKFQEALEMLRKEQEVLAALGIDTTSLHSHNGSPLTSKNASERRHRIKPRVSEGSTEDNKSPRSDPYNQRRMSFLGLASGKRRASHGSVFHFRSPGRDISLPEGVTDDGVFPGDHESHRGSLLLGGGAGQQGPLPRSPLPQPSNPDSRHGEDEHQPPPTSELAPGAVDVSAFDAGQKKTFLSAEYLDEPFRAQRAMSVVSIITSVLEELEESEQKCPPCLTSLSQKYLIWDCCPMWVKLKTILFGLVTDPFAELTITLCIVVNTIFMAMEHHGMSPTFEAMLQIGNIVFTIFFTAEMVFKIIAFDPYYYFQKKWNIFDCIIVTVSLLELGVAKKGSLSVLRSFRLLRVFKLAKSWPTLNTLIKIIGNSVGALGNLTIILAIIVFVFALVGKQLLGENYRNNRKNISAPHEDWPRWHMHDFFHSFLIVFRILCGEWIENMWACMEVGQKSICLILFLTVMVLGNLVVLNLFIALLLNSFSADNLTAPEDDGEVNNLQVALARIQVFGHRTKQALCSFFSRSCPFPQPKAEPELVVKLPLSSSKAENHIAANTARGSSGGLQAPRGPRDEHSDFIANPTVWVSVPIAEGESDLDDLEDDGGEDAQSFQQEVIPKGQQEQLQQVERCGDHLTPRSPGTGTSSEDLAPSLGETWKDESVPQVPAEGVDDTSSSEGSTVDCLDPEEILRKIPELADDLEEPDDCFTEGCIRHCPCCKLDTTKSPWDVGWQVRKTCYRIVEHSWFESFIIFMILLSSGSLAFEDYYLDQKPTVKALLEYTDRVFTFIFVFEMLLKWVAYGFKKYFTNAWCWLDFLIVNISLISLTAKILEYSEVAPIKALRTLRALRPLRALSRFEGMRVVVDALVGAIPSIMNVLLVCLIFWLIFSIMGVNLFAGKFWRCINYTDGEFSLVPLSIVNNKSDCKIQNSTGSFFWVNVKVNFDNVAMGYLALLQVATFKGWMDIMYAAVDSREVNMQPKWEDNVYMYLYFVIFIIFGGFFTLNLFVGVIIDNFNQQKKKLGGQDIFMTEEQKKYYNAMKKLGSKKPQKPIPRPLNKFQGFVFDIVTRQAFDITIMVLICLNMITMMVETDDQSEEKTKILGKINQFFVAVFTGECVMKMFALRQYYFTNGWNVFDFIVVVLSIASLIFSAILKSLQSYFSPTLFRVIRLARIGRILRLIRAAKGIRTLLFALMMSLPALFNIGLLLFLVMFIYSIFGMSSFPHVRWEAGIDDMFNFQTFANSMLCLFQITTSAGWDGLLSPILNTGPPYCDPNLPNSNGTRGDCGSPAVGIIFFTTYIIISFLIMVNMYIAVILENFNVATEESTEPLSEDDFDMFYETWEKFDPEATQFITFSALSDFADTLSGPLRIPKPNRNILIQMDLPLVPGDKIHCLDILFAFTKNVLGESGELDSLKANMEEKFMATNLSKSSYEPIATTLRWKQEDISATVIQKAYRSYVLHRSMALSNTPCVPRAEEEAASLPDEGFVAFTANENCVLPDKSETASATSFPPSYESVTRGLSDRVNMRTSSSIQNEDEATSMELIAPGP
pIC50: −log10 of the molar value.
recorded-endpoint: pIC50

Please review the following examples before continuing.
Qu. Consider the compound CS(=O)(=O)c1ccc(F)c(NC(=O)c2cc(C(F)(F)F)nnc2Oc2ccc(F)cc2Cl)c1 and give its recorded pIC50.
Ans. ≥ 6.70

Qu. Report measured pIC50; entry is Cc1cc(F)ccc1Oc1nnc(C(F)(F)F)cc1C(=O)Nc1cccc(-n2cnnc2)c1
Ans. 5.30 to 6.00

Qu. Give pIC50 for COc1cc(F)ccc1Oc1nnc(C(F)(F)F)cc1C(=O)Nc1ccnc(C(N)=O)c1
Ans. ≥ 6.70

// next entry
Qu. Determine from records and report pIC50 for CS(=N)(=O)c1cccc(NC(=O)c2cc(C(F)(F)F)nnc2Oc2ccc(F)cc2Cl)c1 (stereo not shown)
Ans. 6.00 to 6.30

====

Readings of IC50 for the listed compounds
target: recombinant human NaV1.8 stably transfected HEK cells (Homo sapiens, UniProt Q9Y5Y9); construct: expressed in transfected cells; host or cells: HEK cells, stably transfected; test: Compound profiling on NaV1.8, human NaV1.8 cell line, SyncroPatch384PE automated patch clamp assay (Example 102, first set of compounds, Table 16); format: cell-based; settings: inactivated state block (P2 measurement), human NaV1.8 HEK cells, Table 16 (first set of compounds), read-out: P2IC50

Qu. Identify measured IC50 corresponding to CCOc1ccc(Oc2ncc(C(F)(F)F)cc2C(=O)Nc2cccc(S(C)(=N)=O)c2)cc1 (centres unmarked)
Ans. 0.04 to 0.2 µM

Qu. Supply IC50 value. Item: Cc1c(C(F)(F)F)nnc(Oc2ccc(Cl)cc2F)c1C(=O)Nc1ccc(C(N)=O)cc1
Ans. 0.04 to 0.2 µM

Qu. For the compound COc1cc(C#N)ccc1Oc1nnc(-c2ccc(C#N)cc2)c(C)c1C(=O)Nc1cccc([S@@](C)(=N)=O)c1 , give its reported IC50.
Ans. 0.04 to 0.2 µM

Qu. Return IC50 (reported value) for this compound: CS(=O)(=O)c1cccc(NC(=O)c2cc(C(F)(F)F)cnc2Oc2ccn3ccnc3c2)c1
Ans. 0.2 to 0.5 µM

Qu. Tell me IC50 reported for COCCNS(=O)(=O)c1cccc(NC(=O)c2c(Oc3ccc(C#N)cc3OC)nnc(C(F)(F)F)c2C)c1
Ans. 0.04 to 0.2 µM

Qu. Please list IC50 recorded for the compound N#Cc1cc(F)ccc1Oc1ncc(C(F)(F)F)cc1C(=O)Nc1cccc(C(N)=O)c1
Ans. 0.04 to 0.2 µM

Qu. Kindly indicate its recorded IC50. Item: Cc1cc(F)ccc1Oc1nnc(C(F)(F)F)c(-c2cnn(C)c2)c1C(=O)Nc1cccc([S@@](C)(=N)=O)c1
Ans. 0.2 to 0.5 µM

Qu. Tell me measured IC50 for Cc1cc(F)ccc1Oc1nnc(C#N)c(C)c1C(=O)Nc1cccc(S(C)(=N)=O)c1 (centres unmarked) please.
Ans. 0.2 to 0.5 µM

Continuing:
Qu. Consider the compound COc1cc(C#N)ccc1Oc1nnc(-c2ccccn2)c(C)c1C(=O)Nc1cccc(S(C)(=N)=O)c1 (centres unmarked) . State its measured IC50.
Ans. 0.2 to 0.5 µM

Qu. Find the measured IC50 of COc1cc(C#N)ccc1Oc1nnc(-c2ccc(C(F)F)cc2)c(C)c1C(=O)Nc1cccc(S(C)(=N)=O)c1 (centres unmarked) and report it.
Ans. ≤ 0.02 µM

Qu. Determine its reported IC50: CS(=N)(=O)c1cccc(NC(=O)c2cc(C(F)(F)F)cnc2OCC23CC(C#N)(C2)C3)c1 (centres unmarked)
Ans. 0.2 to 0.5 µM

Qu. Fill in reported IC50 for this entry: Cc1ccc(Oc2nnc(C(F)(F)F)c(C)c2C(=O)Nc2cccc(S(C)(=O)=O)c2)c(C)n1
Ans. 0.2 to 0.5 µM

Qu. Tell me measured IC50 for COc1c(Oc2ncc(C#N)cc2C(=O)Nc2cccc(C(N)=O)c2)ccc(F)c1F please.
Ans. 0.04 to 0.2 µM

Qu. Please give the documented IC50 of Cc1c(C#N)ccc(Oc2ncc(C(F)(F)F)cc2C(=O)Nc2cccc(C(N)=O)c2)c1F
Ans. 0.02 to 0.04 µM

Qu. Tell us which IC50 value is on record for Cc1c(Oc2ncc(C(F)(F)F)cc2C(=O)Nc2cccc(S(C)(=N)=O)c2)ccc(OC(F)(F)F)c1F (single isomer, unassigned) [Compound 1714]
Ans. ≤ 0.02 µM

Qu. Output measured IC50 for this item: NC(=O)c1cccc(NC(=O)c2cc(C(F)(F)F)cnc2Oc2ccc(OC(F)F)cc2)c1
Ans. 0.04 to 0.2 µM

Qu. Let me know recorded IC50 for Cc1nc(F)ccc1Oc1ncc(C(F)(F)F)c(C)c1C(=O)Nc1cccc([S@](C)(=N)=O)c1 , thanks.
Ans. ≤ 0.02 µM

Qu. Provide IC50 value for the following compound: Cc1c(C(F)(F)F)nnc(Oc2ccc(Cl)cc2)c1C(=O)Nc1cccc(S(C)(=N)=O)c1 (centres unmarked)
Ans. 0.04 to 0.2 µM

Qu. Provide measured IC50 value, entry: Cc1cc(F)ccc1Oc1nccc(C(F)(F)F)c1C(=O)Nc1cccc(S(C)(=N)=O)c1 (centres unmarked)
Ans. 0.04 to 0.2 µM

Qu. Consider the compound COc1cc(C#N)ccc1Oc1nnc(C(F)(F)F)c(C)c1C(=O)Nc1cccc(C(=O)NS(C)(=O)=O)c1 . State its measured IC50.
Ans. 0.2 to 0.5 µM

Qu. Give the reported IC50 for this compound. CS(=N)(=O)c1cccc(NC(=O)c2cc(C(F)(F)F)cnc2Oc2ccc(OC3CC3)cc2)c1 (centres unmarked)
Ans. 0.04 to 0.2 µM

Qu. State, in one line, measured IC50 of Cc1ccc2c(Oc3ncc(C(F)(F)F)cc3C(=O)Nc3cccc(S(C)(=O)=O)c3)cccc2n1
Ans. 0.2 to 0.5 µM

Qu. Quote IC50 reported for Cc1cc(F)ccc1Oc1nnc(C(F)(F)F)c(NC2CNC2)c1C(=O)Nc1cccc([S@@](C)(=N)=O)c1 please.
Ans. 0.2 to 0.5 µM
